As a worked illustration, we turn to pIC50 data collected for human metabotropic glutamate receptor 2 (mGluR2) (Homo sapiens).
Numbers only, as −log10 of the molar value.

See these solved cases before continuing.
>>> print(df.to_string())
                                        mol  reportedvalue
0  CCNS(=O)(=O)c1ccc(-c2nc(-c3ccc(OCF)cc3)n3c2CCO[C@H](CF)C3)cc1           7.97
1  C[C@@H]1Cn2c(-c3ccc(OCF)cc3)nc(-c3ccc(S(=O)(=O)NC(C)(C)C)cc3)c2CCO1           8.57
2  CCNS(=O)(=O)c1ccc(-c2nc(-c3ccc(F)cc3)n3c2CCO[C@H](CF)C3)cc1           8.01

Value sought for every listed compound: pIC50.
1. CCOc1ccc(-c2nc(-c3ccc(S(=O)(=O)NC4CCC4)cc3)c3n2C[C@@H](C)OCC3)cc1
2. CCOc1ccc(-c2nc(-c3ccc(S(=O)(=O)NC(C)C)cc3)c3n2C[C@@H](C)OCC3)cc1

**A:**
1: 8.52; 2: 8.49

Please go through the list and note pIC50 for each compound.
1. CC(C)NS(=O)(=O)c1ccc(-c2nc(-c3ccc(F)cc3)n3c2CCO[C@H](CF)C3)cc1
2. COc1ccc(-c2nc(-c3ccc(S(=O)(=O)NC(C)(C)C)cc3)c3n2C[C@@H](C)OCC3)cc1F
3. CCOc1ccc(-c2nc(-c3ccc(S(=O)(=O)NC(C)(C)C)cc3)c3n2C[C@@H](C)OCC3)cc1
4. CCNS(=O)(=O)c1ccc(-c2nc(-c3ccc(OCC)cc3)n3c2CCO[C@H](CF)C3)cc1

**A:**
[8.59, 8.41, 8.44, 8.02]

* * *

The next entries give measured pIC50 for human metabotropic glutamate receptor 2 (mGluR2) (Homo sapiens, UniProt Q14416).
Give bare numbers, as −log10 of the molar value.

>>> print(df.to_string())
                                   molecule  reportedvalue
0  CCOc1ccc(-c2nc(-c3ccc(S(=O)(=O)NC4(C)CCC4)cc3)c3n2C[C@@H](C)OCC3)cc1 [Example 36]           8.89
1  C[C@@H]1Cn2c(-c3ccc(OC(F)F)cc3)nc(-c3ccc(S(=O)(=O)NC4CCC4)cc3)c2CCO1 [Example 24]           8.57
2  O=S(=O)(NC1CCC1)c1ccc(-c2nc(-c3ccc(OC(F)F)cc3)n3c2CCO[C@H](CF)C3)cc1 [Example 60]           8.34

# context switch: different molecule, same pIC50
**Q:** Data request, read-out pIC50, for CC(C)(C)NS(=O)(=O)c1ccc(-c2nc(-c3ccc(OCF)cc3)n3c2CCO[C@H](CF)C3)cc1 [Example 52]
**A:** 8.39
